- System: ABL1 (human), P00519 [M351T]
- protocol: KINOMEscan competition binding
- condition_set: compound 10.0 µM
kinase still bound, per cent of control under 80% gets Condition met, anything at or over 80% gets Condition not met.

[[record]]
test_smiles = "COc1cc(N2CCN(C)CC2)ccc1Nc1ncc2c(n1)Nc1ccccc1NC2=O"
group = "Condition met"

[[record]]
test_smiles = "CS(=O)(=O)Nc1ccc(-c2ncc(/C=C3\\SC(=N)NC3=O)s2)cc1"
group = "Condition met"

[[record]]
test_smiles = "CN1C(=O)c2ccccc2N(C)c2nc(Nc3ccc(N4CCC(O)CC4)cc3)ncc21"
group = "Condition met"

[[record]]
test_smiles = "COc1cc(N2CCC(O)CC2)ccc1Nc1ncc2c(n1)N1CCc3cccc(c31)C(=O)N2C"
group = "Condition not met"

[[record]]
test_smiles = "O=C1NC(=O)/C(=C/c2c[nH]c(=O)c(-c3ccc(N4CCNCC4)nc3)c2)S1"
group = "Condition met"

[[record]]
test_smiles = "CN1C(=O)c2ccccc2N(C)c2nc(NS(=O)(=O)c3ccc(N)cc3)ncc21"
group = "Condition not met"

[[record]]
test_smiles = "CN1CCN(c2ccc(C(=O)Nc3ncc4c(n3)N(C)c3ccccc3C(=O)N4C)cc2)CC1"
group = "Condition not met"


* * *

Collected kinase still bound, per cent of control values appear next to each entry.
- system_name: MAPK10 (human)
- protocol: KINOMEscan competition binding
- condition_set: compound 10.0 µM
readout_label: kinase still bound, per cent of control

[[record]]
test_smiles = "N=C1NC(=O)/C(=C/c2ccc(-c3cncc4ccccc34)o2)S1"
system_name = "MAPK10 (human)"
observed_result = "3%"

[[record]]
test_smiles = "COc1cc(N2CCC(O)CC2)ccc1Nc1ncc2c(n1)N1CCc3cccc(c31)C(=O)N2C"
system_name = "MAPK10 (human)"
observed_result = "42%"

[[record]]
test_smiles = "N=C1NC(=O)/C(=C/c2c[nH]c(=O)c(-c3ccc4cc[nH]c4c3)c2)S1"
system_name = "MAPK10 (human)"
observed_result = "29%"

[[record]]
test_smiles = "CN1C(=O)c2ccccc2N(C)c2nc(Nc3ccc(N4CCC(O)CC4)cc3)ncc21"
system_name = "MAPK10 (human)"
observed_result = "100%"

[[record]]
test_smiles = "NS(=O)(=O)c1ccc(-c2ccc(/C=C3\\SC(=S)N(CC(=O)O)C3=O)o2)cc1"
system_name = "MAPK10 (human)"
observed_result = "30%"

[[record]]
test_smiles = "O=C1NC(=S)S/C1=C\\c1ccc(-c2cncc3ccccc23)o1"
system_name = "MAPK10 (human)"
observed_result = "12%"

[[record]]
test_smiles = "O=C1NC(=S)S/C1=C\\c1ccc(-c2cccc3ccccc23)o1"
system_name = "MAPK10 (human)"
observed_result = "30%"

[[record]]
test_smiles = "CN1C(=O)c2ccccc2N(C)c2nc(NS(=O)(=O)c3ccc(N)cc3)ncc21"
system_name = "MAPK10 (human)"
observed_result = "100%"

[[record]]
test_smiles = "COc1cc(N2CCN(C)CC2)ccc1Nc1ncc2c(n1)Nc1ccccc1NC2=O"
system_name = "MAPK10 (human)"
observed_result = "58%"

[[record]]
test_smiles = "CSC1=NC(=O)/C(=C/c2ccc(-c3ccc(S(N)(=O)=O)cc3)o2)S1"
system_name = "MAPK10 (human)"
observed_result = "22%"

